Origin of values: patent US20250115571A1

# Tested on: HPV-positive head-and-neck squamous cell carcinoma model #HN11303
# assay procedure: Patient-derived xenograft mouse model for head-and-neck squamous cell carcinoma (HN11303)
# Assay type: in vivo
# experimental setup: day 13; subcutaneous HPV-positive HNSCC model, female NMRI nu/nu mice
measured quantity: mean TV (cm^3)

>>> observed_value("CC(C)C[C@H]1C(=O)N([C@@H](CC(C)C)C(=O)N2CCC3(C[C@@H]2C)OCC(CN2CCCC2)CO3)CCN1C (stereo partly shown)")
0.1063
>>> observed_value("CC(C)C[C@@H]1NCCN([C@@H](CC(C)C)C(=O)N2CCC3(C[C@@H]2C)OCC(CN2CCCC2)CO3)C1=O (stereo partly shown)")
0.1064
>>> observed_value("CC(C)C[C@@H]1NCCN([C@@H](CC(C)C)C(=O)N2CCC(Cc3ncc[nH]3)CC2)C1=O")
0.1073
>>> observed_value("CC(C)C[C@@H]1NCCN([C@@H](CC(C)C)C(=O)N2CCC(CCN3CCC4(CC3)CC4)CC2)C1=O")
0.1073

###

# Test system: HPV-positive head-and-neck squamous cell carcinoma model #HN11303
# assay procedure: Patient-derived xenograft mouse model for head-and-neck squamous cell carcinoma (HN11303)
# Assay type: in vivo
# experimental setup: day 29; subcutaneous HPV-positive HNSCC model, female NMRI nu/nu mice
Known mean TV of a selection of compounds
measured quantity: mean TV (cm^3)

>>> observed_value("CC(C)C[C@@H]1NCCN([C@@H](CC(C)C)C(=O)N2CCC3(C[C@@H]2C)OCC(CN2CCCC2)CO3)C1=O (stereo partly shown)")
0.0288
>>> observed_value("CC(C)C[C@@H]1NCCN([C@@H](CC(C)C)C(=O)N2CCC(CCN3CCC4(CC3)CC4)CC2)C1=O")
0.1030
>>> observed_value("CC(C)C[C@H]1C(=O)N([C@@H](CC(C)C)C(=O)N2CCC3(C[C@@H]2C)OCC(CN2CCCC2)CO3)CCN1C (stereo partly shown)")
0.0194
>>> observed_value("CC(C)C[C@@H]1NCCN([C@@H](CC(C)C)C(=O)N2CCC(Cc3ncc[nH]3)CC2)C1=O")
0.1421

###

Known mean TV of a selection of molecules
# System: HPV-positive head-and-neck squamous cell carcinoma model #HN11303
# assay procedure: Patient-derived xenograft mouse model for head-and-neck squamous cell carcinoma (HN11303)
# Type: in vivo
# experimental setup: day 15; subcutaneous HPV-positive HNSCC model, female NMRI nu/nu mice
# Experimental: Female NMRI nu/nu mice were injected with cells derived from a human head-and-neck cancer (model #HN11303, an HPV-positive head-and-neck squamous cell carcinoma, EPO-GmbH, Berlin, Germany). The cells were inoculated subcutaneously into the left flank of 40 mice. […] Body weights were measured twice weekly. Tumor burden was assessed by caliper measurement twice weekly. […]
measured quantity: mean TV

>>> observed_value("CC(C)C[C@H]1C(=O)N([C@@H](CC(C)C)C(=O)N2CCC3(C[C@@H]2C)OCC(CN2CCCC2)CO3)CCN1C (stereo partly shown)")
"0.1073 cm^3"
>>> observed_value("CC(C)C[C@@H]1NCCN([C@@H](CC(C)C)C(=O)N2CCC(CCN3CCC4(CC3)CC4)CC2)C1=O")
"0.1061 cm^3"
>>> observed_value("CC(C)C[C@@H]1NCCN([C@@H](CC(C)C)C(=O)N2CCC3(C[C@@H]2C)OCC(CN2CCCC2)CO3)C1=O (stereo partly shown)")
"0.0958 cm^3"
>>> observed_value("CC(C)C[C@@H]1NCCN([C@@H](CC(C)C)C(=O)N2CCC(Cc3ncc[nH]3)CC2)C1=O")
"0.1106 cm^3"

###

# System: HPV-positive head-and-neck squamous cell carcinoma model #HN11303
# assay procedure: Patient-derived xenograft mouse model for head-and-neck squamous cell carcinoma (HN11303)
# Type: in vivo
# experimental setup: day 18; subcutaneous HPV-positive HNSCC model, female NMRI nu/nu mice
measured quantity: mean TV (cm^3)

>>> observed_value("CC(C)C[C@@H]1NCCN([C@@H](CC(C)C)C(=O)N2CCC(Cc3ncc[nH]3)CC2)C1=O [Compound 57]")
0.1166
>>> observed_value("CC(C)C[C@@H]1NCCN([C@@H](CC(C)C)C(=O)N2CCC(CCN3CCC4(CC3)CC4)CC2)C1=O [Compound 282]")
0.1040
>>> observed_value("CC(C)C[C@H]1C(=O)N([C@@H](CC(C)C)C(=O)N2CCC3(C[C@@H]2C)OCC(CN2CCCC2)CO3)CCN1C (stereo partly shown) [Compound 273]")
0.0948
>>> observed_value("CC(C)C[C@@H]1NCCN([C@@H](CC(C)C)C(=O)N2CCC3(C[C@@H]2C)OCC(CN2CCCC2)CO3)C1=O (stereo partly shown) [Compound 248]")
0.0916
